# system: Aβ42 (Homo sapiens, UniProt P05067)
# Sequence (P05067 672-713): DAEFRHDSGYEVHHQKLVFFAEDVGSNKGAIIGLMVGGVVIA
# method_summary: Th-T (thioflavin-T) assay of Aβ42 aggregation
# Assay type: biochemical
# experimental_context: Supplementary Fig. 47 source data; measurement M40 of time course

compound: C=C1CC[C@H]2[C@]3(C)C[C@H](C=C(C)C)O[C@H]3CC[C@]2(C)[C@@H]1Cc1c(OC)oc(C)c(C)c1=O
Th-T fluorescence, mean of three wells: 4.141
//
compound: C=C1CC[C@H]2[C@]3(C)C[C@@H](C=C(C)C)O[C@H]3CC[C@]2(C)[C@@H]1Cc1c(O)c(C)c(C)oc1=O
Th-T fluorescence, mean of three wells: 2.619
//
compound: C=C1CC[C@@H]2[C@](C)(CC[C@H]3O[C@H](C=C(C)C)C[C@@]23C)[C@@H]1Cc1c(O)c(C)c(C)oc1=O
Th-T fluorescence, mean of three wells: 3.0688
//
compound: C=C1CCC2C(C)(CC(=O)C=C(C)C)C(O)CCC2(C)C1Cc1c(O)c(C)c(C)oc1=O (stereo not drawn)
Th-T fluorescence, mean of three wells: 3.528
//
compound: C=C1CC[C@H]2[C@]3(C)C[C@@H](C=C(C)C)O[C@H]3CC[C@]2(C)[C@@H]1Cc1c(OC)oc(CO)c(C)c1=O
Th-T fluorescence, mean of three wells: 3.376
//
compound: C=C1CC[C@H]2[C@]3(C)C[C@H](C=C(C)C)O[C@H]3CC[C@]2(C)[C@@H]1Cc1c(O)c(C)c(C)oc1=O
Th-T fluorescence, mean of three wells: 3.045

* * *

# system: Aβ42 (Homo sapiens, UniProt P05067)
# method_summary: Th-T (thioflavin-T) assay of Aβ42 aggregation
# Type: biochemical
# experimental_context: time-course reading M100; Supplementary Fig. 47 source data
result_type: Th-T fluorescence, mean of three wells

molecule: CC(C)=CCC/C(C)=C/CC/C(C)=C/CC/C(C)=C/Cc1c(O)c(C)c(C)oc1=O
result_type: Th-T fluorescence, mean of three wells
observed_result: 2.953
//
molecule: C=C1CC[C@H]2[C@]3(C)C[C@@H](C=C(C)C)O[C@H]3CC[C@]2(C)[C@@H]1Cc1c(O)c(C)c(C)oc1=O
result_type: Th-T fluorescence, mean of three wells
observed_result: 2.682
//
molecule: C=C1CCC2C(C)(CCC=C(C)C)C(O)CCC2(C)C1Cc1c(OC)oc(CO)c(C)c1=O (centres unmarked)
result_type: Th-T fluorescence, mean of three wells
observed_result: 2.078
//
molecule: C=C1CC[C@@H]2[C@](C)(CC[C@H]3O[C@H](C=C(C)C)C[C@@]23C)[C@@H]1Cc1c(OC)oc(CO)c(C(=O)OC)c1=O
result_type: Th-T fluorescence, mean of three wells
observed_result: 1.023
//
molecule: C=C1CCC2C(C)(CCC=C(C)C)C(O)CCC2(C)C1Cc1c(O)c(C)c(C)oc1=O (centres unmarked) [Compound 4]
result_type: Th-T fluorescence, mean of three wells
observed_result: 2.783
//
molecule: C=C1CCC2C(C)(CC(=O)C=C(C)C)C(O)CCC2(C)C1Cc1c(OC)oc(C)c(C)c1=O (centres unmarked)
result_type: Th-T fluorescence, mean of three wells
observed_result: 3.653
//
molecule: C=C1CC[C@H]2[C@]3(C)C[C@H](C=C(C)C)O[C@H]3CC[C@]2(C)[C@@H]1Cc1c(OC)oc(C)c(C)c1=O
result_type: Th-T fluorescence, mean of three wells
observed_result: 4.004
//
molecule: C=C1CCC2C(C)(CCC=C(C)C)C(O)CCC2(C)C1Cc1c(OC)oc(C)c(C)c1=O (centres unmarked) [Compound 15, viridoxin A hydrolysate]
result_type: Th-T fluorescence, mean of three wells
observed_result: 3.3481
//
molecule: C=C1CC[C@@H]2[C@](C)(CC[C@H]3O[C@H](C=C(C)C)C[C@@]23C)[C@@H]1Cc1c(OC)oc(CO)c(C)c1=O
result_type: Th-T fluorescence, mean of three wells
observed_result: 4.238
//
molecule: C=C1CC[C@H]2[C@]3(C)C[C@H](C=C(C)C)O[C@H]3CC[C@]2(C)[C@@H]1Cc1c(O)c(C)c(C)oc1=O
result_type: Th-T fluorescence, mean of three wells
observed_result: 3.074
//
molecule: C=C1CCC2C(C)(CCC=C(C)C)C(O)CCC2(C)C1Cc1c(OC)oc(C)c(C)c1=O (centres unmarked) [Compound 11]
result_type: Th-T fluorescence, mean of three wells
observed_result: 3.536
//
molecule: C=C1CCC2C(C)(CCC=C(C)C)C(O)CCC2(C)C1Cc1c(O)c(C)c(C)oc1=O (centres unmarked) [Compound 9, higginsianin B]
result_type: Th-T fluorescence, mean of three wells
observed_result: 2.825
//
molecule: C=C1CCC2C(C)(CCC=C(C)C)C(O)CCC2(C)C1Cc1c(OC)oc(C)c(C(=O)OC)c1=O (centres unmarked)
result_type: Th-T fluorescence, mean of three wells
observed_result: 1.596
//
molecule: C=C1CCC2C(C)(CC(=O)C=C(C)C)C(O)CCC2(C)C1Cc1c(O)c(C)c(C)oc1=O (centres unmarked)
result_type: Th-T fluorescence, mean of three wells
observed_result: 3.513

* * *

# method_summary: cytotoxicity in Drosophila DL1 cells
# Format: cell-based
# experimental_context: Drosophila, DL1 cells (embryonic macrophage-derived), DL1 cells, 4 µM, replicate 1, relative to DMSO 1%; read-out: % viability, viability 1
Mark True for viability at 4 µM under 6%, False if at or over.

molecule: C=C1CCC2C(C)(CCC=C(C)C)C(O)CCC2(C)C1Cc1c(OC)oc(C)c(C(=O)OC)c1=O (centres unmarked)
group_label: True
//
molecule: C=C1CC[C@H]2[C@]3(C)C[C@H](C=C(C)C)O[C@H]3CC[C@]2(C)[C@@H]1Cc1c(OC)oc(CO)c(C)c1=O
group_label: True
//
molecule: C=C1CC[C@H]2[C@]3(C)C[C@@H](C=C(C)C)O[C@H]3CC[C@]2(C)[C@@H]1Cc1c(O)c(C)c(C)oc1=O
group_label: True
//
molecule: C=C1CCC2C(C)(CC(=O)C=C(C)C)C(O)CCC2(C)C1Cc1c(OC)oc(CO)c(C)c1=O (centres unmarked)
group_label: False
//
molecule: C=C1CC[C@@H]2[C@](C)(CC[C@H]3O[C@H](C=C(C)C)C[C@@]23C)[C@@H]1Cc1c(OC)oc(CO)c(C(=O)OC)c1=O
group_label: True
//
molecule: C=C1CCC2C(C)(CC(=O)C=C(C)C)C(O)CCC2(C)C1Cc1c(O)c(C)c(C)oc1=O (centres unmarked)
group_label: False
//
molecule: C=C1CC[C@H]2[C@]3(C)C[C@H](C=C(C)C)O[C@H]3CC[C@]2(C)[C@@H]1Cc1c(O)c(C)c(C)oc1=O
group_label: False
//
molecule: C=C1CC[C@@H]2[C@](C)(CC[C@H]3O[C@H](C=C(C)C)C[C@@]23C)[C@@H]1Cc1c(O)c(C)c(C)oc1=O
group_label: True
//
molecule: C=C1CCC2C(C)(CC(=O)C=C(C)C)C(O)CCC2(C)C1Cc1c(OC)oc(C)c(C)c1=O (centres unmarked)
group_label: False
//
molecule: C=C1CC[C@@H]2[C@](C)(CC[C@H]3O[C@H](C=C(C)C)C[C@@]23C)[C@@H]1Cc1c(OC)oc(CO)c(C)c1=O
group_label: False
//
molecule: C=C1CCC2C3(C)CC(C=C(C)C)OC3CCC2(C)C1Cc1c(OC)oc(C)c(C)c1=O (centres unmarked)
group_label: False
//
molecule: C=C1CC[C@H]2[C@]3(C)C[C@H](C=C(C)C)O[C@H]3CC[C@]2(C)[C@@H]1Cc1c(OC)oc(C)c(C)c1=O
group_label: False
//
molecule: C=C1CCC2C(C)(CCC=C(C)C)C(O)CCC2(C)C1Cc1c(O)c(C)c(C)oc1=O (centres unmarked)
group_label: False
//
molecule: C=C1CCC2C(C)(CCC=C(C)C)C(=O)CCC2(C)C1Cc1c(O)c(C)c(C)oc1=O (centres unmarked)
group_label: False
//
molecule: C=C1CC[C@H]2[C@]3(C)C[C@@H](C=C(C)C)O[C@H]3CC[C@]2(C)[C@@H]1Cc1c(OC)oc(CO)c(C)c1=O
group_label: False

* * *

# system: Aβ42 (Homo sapiens, UniProt P05067)
# method_summary: Th-T (thioflavin-T) assay of Aβ42 aggregation
# Assay type: biochemical
# experimental_context: column suffix _50; measurement M20
result_type: Th-T fluorescence, mean of three wells (Fig. 7a)

compound: C=C1CC[C@@H]2[C@](C)(CC[C@H]3O[C@H](C=C(C)C)C[C@@]23C)[C@@H]1Cc1c(OC)oc(CO)c(C(=O)OC)c1=O [Compound 21]
observed_result: 0.2087

compound: C=C1CCC2C(C)(CCC=C(C)C)C(O)CCC2(C)C1Cc1c(OC)oc(CO)c(C(=O)OC)c1=O (centres unmarked) [Compound 13]
observed_result: 0.229

compound: C=C1CC[C@@H]2[C@](C)(CC[C@H]3O[C@H](C=C(C)C)C[C@@]23C)[C@@H]1Cc1c(OC)oc(CO)c(C)c1=O [Compound 20]
observed_result: 2.217

compound: C=C1CCC2C(C)(CCC=C(C)C)C(O)CCC2(C)C1Cc1c(OC)oc(CO)c(C)c1=O (centres unmarked) [Compound 12]
observed_result: 1.709

compound: C=C1CCC2C(C)(CCC=C(C)C)C(O)CCC2(C)C1Cc1c(OC)oc(C)c(C(=O)OC)c1=O (centres unmarked) [Compound 14]
observed_result: 0.5788

Origin of measurements: paper PMC7156458
